The measurements presented in this section are drawn from patent US9873709B2.

Measured IC50 accompanies every entry in the list below.
# Test system: JAK1-dependent STAT6 phosphorylation downstream of IL-13 stimulation in TF-1 human erythroleukemia cells
# experimental_protocol: cells
# measurement_setup: TF-1, read-out: IL-13-pSTAT6 IC50
Counter-ions that a name gives are not always drawn.

compound	units_text	comparative_sign	IC50
CC1CNCCN1C(=O)c1ccc(Nc2nc3c(C4=CCN(C(=O)CCC(F)(F)F)CC4)cccn3n2)cc1 (stereo not drawn) [Example 2-319]	nM	=	24.3
CN1CCC(CNC(=O)c2ccc(Nc3nc4c(C5=CCN(C(=O)CCC(F)(F)F)CC5)cccn4n3)cc2)CC1 [Example 2-467]	nM	=	20.9
O=C(CCC(F)(F)F)N1CC=C(c2cccn3nc(Nc4ccc(C(=O)N5CCC6(CCCN6)C5)cc4)nc23)CC1 (stereo not drawn) [Example 2-377]	nM	=	55.5
O=C(NCCN1CCC(O)CC1)c1ccc(Nc2nc3c(N4CCC(O)(c5ccc(Cl)cc5)CC4)cccn3n2)cc1 [Example 1-95]	nM	=	115
O=C(NCC1CCC2(CCNCC2)CO1)c1ccc(Nc2nc3c(C4=CCN(C(=O)CCC(F)(F)F)CC4)cccn3n2)cc1 (stereo not drawn) [Example 2-189]	nM	=	110
CN1CCC(N(C)C(=O)c2ccc(Nc3nc4c(C5=CCN(c6ccccc6)CC5)cccn4n3)cc2)CC1 [Example 2-284]	nM	=	163
O=C(N[C@H]1[C@@H]2CNC[C@@H]21)c1ccc(Nc2nc3c(C4=CCN(C(=O)CCC(F)(F)F)CC4)cccn3n2)cc1 [Example 2-454]	nM	=	87.9
CCOC(=O)CC1(c2ccc(Cl)cc2)CCN(c2cccn3nc(Nc4ccc(C(=O)N(C)C5CCN(C)CC5)cc4)nc23)CC1 [Example 1-254]	nM	=	89.9
O=C(CCC(F)(F)F)N1CC=C(c2cccn3nc(Nc4ccc(C(=O)N5CCCC(N6CCOCC6)C5)cc4)nc23)CC1 (stereo not drawn) [Example 2-339]	nM	=	9.8
O=C(c1ccc(Nc2nc3c(N4CCC(O)(c5ccc(Cl)cc5)CC4)cccn3n2)cc1)N1CCC2(CNC2)C1 [Example 1-205]	nM	=	522
CCOC(=O)N1CC=C(c2cccn3nc(Nc4ccc(C(=O)NCc5cncc(C)c5)cc4)nc23)CC1 [Example 2-178]	nM	=	32.6
CCOC(=O)N1CC=C(c2cccn3nc(Nc4ccc(C(=O)NCCC5CCNCC5)cc4)nc23)CC1 [Example 2-13]	nM	=	338
CN1C[C@@H]2CCN(C(=O)c3ccc(Nc4nc5c(C6=CCN(C(=O)CCC(F)(F)F)CC6)cccn5n4)cc3)[C@@H]2C1 [Example 2-326]	nM	=	4.2
NCC12CC(CN1C(=O)c1ccc(Nc3nc4c(C5=CCN(C(=O)CCC(F)(F)F)CC5)cccn4n3)cc1)C2 [Example 2-452]	nM	=	134
CN1CCN(C(=O)c2ccc(Nc3nc4c(C5=CCN(C(=O)CCC(F)(F)F)CC5)cccn4n3)cc2)CC(CO)C1 (stereo not drawn) [Example 2-144]	nM	=	187
CC(=O)N1CCN(c2cccn3nc(Nc4ccc(C(=O)N(C)C5CCN(C)CC5)cc4)nc23)CC1 [Example 1-10]	nM	>	10000
CN1CCC(N(C)C(=O)c2ccc(Nc3nc4c(C5=CCN(C(=O)CC(C)(C)C)CC5)cccn4n3)cc2)CC1 [Example 2-54]	nM	=	16.3
O=C(CCC(F)(F)F)N1CC=C(c2cccn3nc(Nc4ccc(C(=O)N5CCNCC5CO)cc4)nc23)CC1 (stereo not drawn) [Example 2-33]	nM	=	23.3
CN1C2COCC1CN(C(=O)c1ccc(Nc3nc4c(C5=CCN(C(=O)CCC(F)(F)F)CC5)cccn4n3)cc1)C2 [Example 2-458]	nM	=	45.9
O=C(CCC(F)(F)F)N1CC=C(c2cccn3nc(Nc4ccc(C(=O)N5CCN(CCO)CC5)cc4)nc23)CC1 [Example 2-153]	nM	=	28.6
CNC(=O)N1CC=C(c2cccn3nc(Nc4ccc(C(=O)N(C)C5CCN(C)CC5)cc4)nc23)CC1 [Example 2-106, hydrochloride]	nM	=	8570
O=C(N[C@H]1CCCNC1)c1ccc(Nc2nc3c(N4CCC(O)(c5ccc(Cl)cc5)CC4)cccn3n2)cc1 [Example 1-198]	nM	=	68.5
O=C(CCC(F)(F)F)N1CC=C(c2cccn3nc(Nc4ccc(C(=O)N5CCCCC5Cc5ccccn5)cc4)nc23)CC1 (stereo not drawn) [Example 2-265]	nM	=	4.2
CN1CCCC12CN(C(=O)c1ccc(Nc3nc4c(N5CCC(O)(c6ccc(Cl)cc6)CC5)cccn4n3)cc1)C2 [Example 1-60]	nM	=	12.2
CCOC(=O)N1CC=C(c2cccn3nc(Nc4ccc(C(=O)N5CCN(c6cccnc6)CC5)cc4)nc23)CC1 [Example 2-19]	nM	=	55.7
CC(C)COC(=O)N1CC=C(c2cccn3nc(Nc4ccc(C(=O)N(C)C5CCN(C)CC5)cc4)nc23)CC1 [Example 2-345]	nM	=	23.7
CN1CCC(N(C)C(=O)c2ccc(Nc3nc4c(N5CCC(OCC#N)CC5)cccn4n3)cc2)CC1 [Example 1-23]	nM	=	73.7

----------
# System: JAK1-dependent STAT6 phosphorylation downstream of IL-13 stimulation in TF-1 human erythroleukemia cells
# experimental_protocol: cells
# measurement_setup: TF-1, read-out: IL-13-pSTAT6 IC50

compound	IC50, nM
CCOC(=O)N1CC=C(c2cccn3nc(Nc4ccc(C(=O)N5CCNCC5C)cc4)nc23)CC1 (stereo not shown)	21.6
Cc1cccc(C2CCN(C(=O)c3ccc(Nc4nc5c(C6=CCN(C(=O)CCC(F)(F)F)CC6)cccn5n4)cc3)CC2)n1	12.8
CN1CC2CN(C(=O)c3ccc(Nc4nc5c(C6=CCN(C(=O)CCC(F)(F)F)CC6)cccn5n4)cc3)CC2C1 (stereo not shown)	8.6
O=C(c1ccc(Nc2nc3c(N4CCC(O)(c5ccc(Cl)cc5)CC4)cccn3n2)cc1)N1CCN2CCCC2C1 (stereo not shown)	22.6
CN1CCC(CCNC(=O)c2ccc(Nc3nc4c(N5CCC(O)(c6ccc(Cl)cc6)CC5)cccn4n3)cc2)CC1	37.3
O=C(CCC(F)(F)F)N1CC=C(c2cccn3nc(Nc4ccc(C(=O)N5CCN6CCCC6C5)cc4)nc23)CC1 (stereo not shown)	4.1
NCCNC(=O)c1ccc(Nc2nc3c(C4=CCN(C(=O)CCC(F)(F)F)CC4)cccn3n2)cc1	94.2

----------
# Test system: JAK1-dependent STAT6 phosphorylation downstream of IL-13 stimulation in TF-1 human erythroleukemia cells
# experimental_protocol: cells
# measurement_setup: TF-1, read-out: IL-13-pSTAT6 IC50
Item-by-item account of IC50

compound	IC50 / nM
CN1CCC(OC(=O)c2ccc(Nc3nc4c(N5CCC(O)(c6ccc(Cl)cc6)CC5)cccn4n3)cc2)CC1	98.3
O=C(CCC(F)(F)F)N1CC=C(c2cccn3nc(Nc4ccc(C(=O)N5CCC(c6ccncc6)C5)cc4)nc23)CC1 (stereo not shown)	3.3
CNC(=O)CC1(c2ccc(Cl)cc2)CCN(c2cccn3nc(Nc4ccc(C(=O)N(C)C5CCN(C)CC5)cc4)nc23)CC1	55.7
CC1CCN(CCNC(=O)c2ccc(Nc3nc4c(C5=CCN(C(=O)CCC(F)(F)F)CC5)cccn4n3)cc2)CC1	6.6
COCCN1CCN(C(=O)c2ccc(Nc3nc4c(C5=CCN(C(=O)CCC(F)(F)F)CC5)cccn4n3)cc2)CC1	8.9
O=C(CCC(F)(F)F)N1CC=C(c2cccn3nc(Nc4ccc(C(=O)N5CCOC(c6ccccn6)C5)cc4)nc23)CC1 (stereo not shown)	4.5
CCOC(=O)N1CC=C(c2cccn3nc(Nc4ccc(C(=O)N5CCCCC5Cc5ccccn5)cc4)nc23)CC1 (stereo not shown)	23.1

----------
# Test system: JAK1-dependent STAT6 phosphorylation downstream of IL-13 stimulation in TF-1 human erythroleukemia cells
# experimental_protocol: cells
# measurement_setup: TF-1, read-out: IL-13-pSTAT6 IC50

compound	units_text	IC50
CN(C)c1cc(CC2CCN(C(=O)c3ccc(Nc4nc5c(C6=CCN(C(=O)CCC(F)(F)F)CC6)cccn5n4)cc3)C2)ncn1 (stereo not shown) [Example 2-217]	µM	0.0095
O=C(CCC(F)(F)F)N1CC=C(c2cccn3nc(Nc4ccc(C(=O)N5CCN(CCN6CCOCC6)CC5)cc4)nc23)CC1 [Example 2-474]	µM	0.0141
O=C(NCCc1ccncc1)c1ccc(Nc2nc3c(C4=CCN(C(=O)CCC(F)(F)F)CC4)cccn3n2)cc1 [Example 2-343]	µM	0.0046
O=C(CCC(F)(F)F)N1CC=C(c2cccn3nc(Nc4ccc(C(=O)N5CC6(CCCNC6)C5)cc4)nc23)CC1 [Example 2-186]	µM	0.0233
O=C(NCCc1ccncc1)c1ccc(Nc2nc3c(N4CCC(O)(c5ccc(Cl)cc5)CC4)cccn3n2)cc1 [Example 1-161]	µM	0.0234
CN1CCC(N(C)C(=O)c2ccc(Nc3nc4c(C5=CCN(C(=O)N6CC(C#N)C6)CC5)cccn4n3)cc2)CC1 [Example 2-5]	µM	1.09
CN1CCN(C(=O)C2CCN(C(=O)c3ccc(Nc4nc5c(N6CCC(O)(c7ccc(Cl)cc7)CC6)cccn5n4)cc3)CC2)CC1 [Example 1-113]	µM	0.0267
